target.or.test.system: Rabbit CYP2E1 (Oryctolagus cuniculus)
Sequence (P08682 whole entry): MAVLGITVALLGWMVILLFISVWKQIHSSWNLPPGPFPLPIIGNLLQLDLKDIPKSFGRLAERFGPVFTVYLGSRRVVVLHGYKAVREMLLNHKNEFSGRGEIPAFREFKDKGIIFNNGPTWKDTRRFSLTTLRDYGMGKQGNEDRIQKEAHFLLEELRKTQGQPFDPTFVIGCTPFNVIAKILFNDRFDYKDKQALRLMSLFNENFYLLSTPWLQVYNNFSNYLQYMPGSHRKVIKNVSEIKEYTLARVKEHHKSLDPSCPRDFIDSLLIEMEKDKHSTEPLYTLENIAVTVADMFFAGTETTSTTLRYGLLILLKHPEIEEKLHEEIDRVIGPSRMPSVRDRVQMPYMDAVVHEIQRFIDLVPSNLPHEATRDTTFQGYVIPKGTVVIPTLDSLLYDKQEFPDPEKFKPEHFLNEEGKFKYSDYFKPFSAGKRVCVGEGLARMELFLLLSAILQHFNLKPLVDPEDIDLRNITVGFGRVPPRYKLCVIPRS
assay.overview: Inhibition of p-nitrophenol hydroxylation by purified rabbit CYP2E1
Assay type: biochemical
recorded.conditions: Ki, substituted pyrazoles; purified rabbit CYP2E1, p-nitrophenol as substrate
reported.property: pKi
When answering, recall that pKi equals minus log10 of the concentration in mol/L, and write that number alone.

• Cc1cc[nH]n1 [3-methylpyrazole] = 5.27
• CC(=O)Nc1cn[nH]c1 [4-acetylaminopyrazole] = 2.24
• CCCCCc1cn[nH]c1 [4-pentylpyrazole] = 7.22

Now look at this one.
Exercise: # input compound: O=[N+]([O-])c1cn[nH]c1 [4-nitropyrazole] ; wanted: its pKi
Key: 4.68

====

target.or.test.system: CYP2E1 (Rattus norvegicus, UniProt P05182, species not given)
Sequence (P05182 2-493): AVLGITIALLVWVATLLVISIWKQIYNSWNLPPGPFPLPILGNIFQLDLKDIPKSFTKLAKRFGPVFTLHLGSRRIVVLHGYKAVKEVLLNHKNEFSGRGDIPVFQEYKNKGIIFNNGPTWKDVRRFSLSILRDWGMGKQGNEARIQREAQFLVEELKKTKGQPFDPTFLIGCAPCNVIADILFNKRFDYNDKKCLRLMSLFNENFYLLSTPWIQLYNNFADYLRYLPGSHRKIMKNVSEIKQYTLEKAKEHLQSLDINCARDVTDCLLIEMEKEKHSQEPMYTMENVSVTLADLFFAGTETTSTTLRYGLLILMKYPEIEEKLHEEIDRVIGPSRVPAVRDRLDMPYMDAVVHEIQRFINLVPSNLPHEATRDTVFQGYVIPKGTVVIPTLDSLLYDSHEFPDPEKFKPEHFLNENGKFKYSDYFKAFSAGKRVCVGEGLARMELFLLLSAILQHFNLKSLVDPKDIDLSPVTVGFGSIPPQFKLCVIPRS
assay.overview: in vitro
recorded.conditions: human, microsomes, pH 7.4, pKi±stdev
reported.property: Ki at 10 min (µM)
Write down the numeric answer in µM and omit the unit.

Exercise: Form field: reported Ki at 10 min of Oc1ccc2ccccc2n1 [2-hydroxyquinoline]
Key: 1000

====

target.or.test.system: CYP2E1 (Rattus norvegicus, UniProt P05182, species not given)
assay.overview: Inhibition of chlorzoxazone 6-hydroxylation in CYP2E1 liver microsomes
recorded.conditions: human, microsomes, pH 7.4, pKi±stdev, Table 3 test set, chlorzoxazone metabolism
reported.property: Ki at 10 min (µM)
Give just the numeric value; µM need not be written.

- c1ccc2ncccc2c1: 63.1

Now look at this entry.
Exercise: # value lookup — system CYP2E1 (Rattus norvegicus, UniProt P05182, species not given), readout Ki at 10 min, item "O=[N+]([O-])c1c[nH]cn1"
Key: 12.6

====

Ki at 10 min values for the molecules below.
target.or.test.system: CYP2E1 (Rattus norvegicus, UniProt P05182, species not given)
assay.overview: in vitro
recorded.conditions: human, microsomes, pH 7.4, pKi
Enter your answer as a number in µM; do not include the unit.

Use these answered entries as a reference point.
- Oc1ccc2ncccc2c1 [6-hydroxyquinoline]: 200
- Oc1ccc2ccccc2n1 [2-hydroxyquinoline]: 1000

Query molecule follows.
Exercise: // lookup Ki at 10 min for Oc1ccnc2ccccc12 [4-hydroxyquinoline]
Key: 631

====

target.or.test.system: Rabbit CYP2E1 (Oryctolagus cuniculus)
assay.overview: Inhibition of p-nitrophenol hydroxylation by purified rabbit CYP2E1
Format: biochemical
recorded.conditions: Ki, substituted pyrazoles; purified rabbit CYP2E1, p-nitrophenol as substrate
Reported pKi by item:
pKi is a log-scale quantity: -log10 of the concentration expressed in molar.

- CCCc1cn[nH]c1: 6.80
- Cc1n[nH]cc1Br: 5.52

Exercise: Returns the measured pKi for the input compound. Input: "Ic1cn[nH]c1"
Key: 6.00
